tested on: P12-Ichikawa; experiment: cell viability relative to DMSO control; higher = less cytotoxic; conditions: RPMI 5 mM glucose + 10% FBS; 48 h; 0.00702 µM
MEASURED ENDPOINT: cell viability
Quote the value and follow it with the unit of measurement.

Solved cases (5 shown):
Briefly, cell viability measured for CNC(=O)[C@H](Cc1ccccc1)NC(=O)[C@H](CC(C)C)[C@H](CSc1cccs1)C(=O)NO : 78.9%

get_value(item= CN(C)Cc1ccc(-c2nc3cccc4c3n2CCNC4=O)cc1 , readout=cell viability) returns 94.7%

The value of cell viability measured for the molecule COc1cc2nccc(Oc3ccc(NC(=O)C4(C(=O)Nc5ccc(F)cc5)CC4)cc3)c2cc1OC turned out to be 116%

According to the records, this molecule O=C/1\C=C(/OC(=C1)/C2=C3SC4=C(SC3=CC=C2)C=CC=C4)N5CCOCC5 displays cell viability of 96.9%

get_value(item= CN1C(=O)\C(=C/C(=C1/NC2=C(F)C=C(I)C=C2)C(=O)NOCCO)C , readout=cell viability) returns 98.9%

Next:
The molecule identified as CCC1=C[C@@H]2CN(C1)Cc1c([nH]c3ccccc13)[C@@](C(=O)OC)(c1cc3c(cc1OC)N(C)[C@H]1[C@@](O)(C(=O)OC)[C@H](OC(C)=O)[C@]4(CC)C=CCN5CC[C@]31[C@@H]54)C2 registered its cell viability at 96.6%

So, Cc1c[nH]c(/C=C2\C(=O)Nc3ccccc32)c1CCC(=O)O ? Its cell viability was 115%

The value of cell viability measured for the molecule COc1cc2c(N3CCN(C(=O)Nc4ccc(OC(C)C)cc4)CC3)ncnc2cc1OCCCN1CCCCC1 turned out to be 80%

Quick note, cell viability for CCOC(=O)Nc1ccc(NCc2ccc(F)cc2)cc1N landed at 122%

// O=C1NC(=O)[C@@H](c2cn3c4c(cccc24)CCC3)[C@@H]1c1c[nH]c2ccccc12 : cell viability value = 102%

The value of cell viability measured for the molecule O=C(O)[C@H](Cc1c[nH]c2ccccc12)N1C(=O)c2ccccc2C1=O turned out to be 91.3%

Reported cell viability of O=C1CSC(=O)N1C(CCc1ccncc1)COc1ccc(-c2cccc([N+](=O)[O-])c2)cc1 (stereo unspecified) : 116%

The value of cell viability measured for the molecule CO[C@H]1C[C@@H]2CC[C@@H](C)[C@@](O)(O2)C(=O)C(=O)N2CCCC[C@H]2C(=O)O[C@H]([C@H](C)C[C@@H]2CC[C@@H](OP(C)(C)=O)[C@H](OC)C2)CC(=O)[C@H](C)/C=C(\C)[C@@H](O)[C@@H](OC)C(=O)[C@H](C)C[C@H](C)/C=C/C=C/C=C/1C turned out to be 121%

Item: CC[C@H]1OC(=O)[C@H](C)[C@@H](O[C@H]2C[C@@](C)(OC)[C@@H](O)[C@H](C)O2)[C@H](C)[C@@H](O[C@@H]2O[C@@H](C)C[C@H](N(C)C)[C@H]2O)[C@](C)(O)C[C@@H](C)C(=O)[C@H](C)[C@@H](O)[C@]1(C)O | cell viability: 85.6%

// recorded cell viability for FC(F)(F)c1ccc(Nc2nc3cc(Oc4ccnc(-c5ncc(C(F)(F)F)[nH]5)c4)ccc3[nH]2)cc1 : 127%

cell viability measured on Cc1ccc(-n2nc(C(C)(C)C)cc2NC(=O)Nc2ccc(OCCN3CCOCC3)c3ccccc23)cc1 = 103%
